Hey, just so you know, these numbers are from ChEMBL document CHEMBL5512674.

- procedure text: Half life in human liver microsomes preincubated for 5 mins followed by NADPH addition and measured for 45 mins by LC-MS analysis
- Assay type: ADME, Microsome
- assay conditions: time 50 min
# Lookup of reported half-life keyed by entry
Give a bare numeral; the unit h is implied.

CC(C)(C)c1ccc(C(=O)NC(=S)Nc2ccc(N)cc2)cc1	2.31

Next molecule, half-life to be filled in.
Input line: Quick one: half-life of CC(C)(C)OC(=O)NCCCC[C@H](NC(=O)OC(C)(C)C)C(=O)NCCCCCCCC(=O)Nc1ccc(NC(=S)NC(=O)c2ccc(C(C)(C)C)cc2)cc1 ?
Output line: 0.211

* * *

- procedure text: Stability in human plasma assessed as compound remaining measured after 5 mins by LC-MS/MS analysis
- Type: ADME, cell-free
- assay conditions: read-out: Stability
# Lookup of reported remaining at 5 min keyed by entry
Give a bare numeral; the unit % is implied.

Recorded results for 2 compounds are shown here.
CC(C)(C)c1ccc(C(=O)NC(=S)Nc2ccc(N)cc2)cc1	101
CCN(CC)CCOC(=O)c1ccc(N)cc1 [PROCAINE]	4.49

Input line: Quick one: remaining at 5 min of CC(C)(C)OC(=O)NCCCC[C@H](NC(=O)OC(C)(C)C)C(=O)NCCCCCCCC(=O)Nc1ccc(NC(=S)NC(=O)c2ccc(C(C)(C)C)cc2)cc1 ?
Output line: 96.8

* * *

# Lookup of reported selectivity ratio keyed by entry
- procedure text: Selectivity index, ratio of CC50 for cytotoxicity against human HEK293T cells to EC50 for anti-influenza activity against Influenza A virus A/WSN/33(H1N1) infected in HEK293T cells assessed as reduction in virus-induced cytopathic effect
- Format: toxicity, cell-based
- assay conditions: read-out: Ratio CC50/EC50

Recorded results for 2 compounds are shown here.
O=C1c2c(O)c(=O)ccn2N([C@@H]2c3ccccc3SCc3c2ccc(F)c3F)[C@@H]2COCCN12	16600
CC(C)(C)OC(=O)N[C@@H](Cc1c[nH]c2ccccc12)C(=O)NCCCCCC(=O)Nc1ccc(NC(=S)NC(=O)c2ccc(C(C)(C)C)cc2)cc1	> 291

Input line: Quick one: selectivity ratio of NC(=O)c1nc(F)cnc1O ?
Output line: > 18.1

Input line: Quick one: selectivity ratio of CC(C)(C)c1ccc(C(=O)NC(=S)Nc2ccc(NC(=O)CCCCCCCCN)cc2)cc1 ?
Output line: 17.7

Input line: Quick one: selectivity ratio of NC12CC3CC(CC(C3)C1)C2 ?
Output line: > 55.9

Input line: Quick one: selectivity ratio of CC(C)(C)OC(=O)NCCCC[C@H](NC(=O)OC(C)(C)C)C(=O)NCCCCCCCC(=O)Nc1ccc(NC(=S)NC(=O)c2ccc(C(C)(C)C)cc2)cc1 ?
Output line: > 6670

Input line: Quick one: selectivity ratio of CC(C)(C)OC(=O)NCCCC[C@H](NC(=O)OC(C)(C)C)C(=O)NCCCCCCC(=O)Nc1ccc(NC(=S)NC(=O)c2ccc(C(C)(C)C)cc2)cc1 ?
Output line: > 1330

Input line: Quick one: selectivity ratio of CC(C)(C)OC(=O)N[C@@H](Cc1c[nH]c2ccccc12)C(=O)NCCCCCCCC(=O)Nc1ccc(NC(=S)NC(=O)c2ccc(C(C)(C)C)cc2)cc1 ?
Output line: > 2330

* * *

# Lookup of reported half-life keyed by entry
- procedure text: Half life in mouse liver microsomes preincubated for 5 mins followed by NADPH addition and measured for 45 mins by LC-MS analysis
- Assay type: ADME, Microsome
- assay conditions: time 50 min
Give a bare numeral; the unit min is implied.

Input line: Quick one: half-life of CC(C)(C)OC(=O)NCCCC[C@H](NC(=O)OC(C)(C)C)C(=O)NCCCCCCCC(=O)Nc1ccc(NC(=S)NC(=O)c2ccc(C(C)(C)C)cc2)cc1 ?
Output line: 32.1

Input line: Quick one: half-life of CC(C)(C)c1ccc(C(=O)NC(=S)Nc2ccc(N)cc2)cc1 ?
Output line: 21.9

* * *

- procedure text: Half life in dog liver microsomes preincubated for 5 mins followed by NADPH addition and measured for 45 mins by LC-MS analysis
- Type: ADME, Canis lupus familiaris, Microsome
- assay conditions: time 50 min
parameter: half-life (min)
Give a bare numeral; the unit min is implied.

CC(C)(C)OC(=O)NCCCC[C@H](NC(=O)OC(C)(C)C)C(=O)NCCCCCCCC(=O)Nc1ccc(NC(=S)NC(=O)c2ccc(C(C)(C)C)cc2)cc1	19.6

Input line: Quick one: half-life of CC(C)(C)c1ccc(C(=O)NC(=S)Nc2ccc(N)cc2)cc1 ?
Output line: 26.1

* * *

# Lookup of reported hepatic extraction ratio at 0.75 h keyed by entry
- procedure text: Hepatic extraction ratio in mouse liver microsomes preincubated for 5 mins followed by NADPH addition and measured for 45 mins by LC-MS analysis
- Assay type: ADME, Microsome
- assay conditions: time 50 min, read-out: ERH

Recorded results for 2 compounds are shown here.
CC(C)(C)OC(=O)NCCCC[C@H](NC(=O)OC(C)(C)C)C(=O)NCCCCCCCC(=O)Nc1ccc(NC(=S)NC(=O)c2ccc(C(C)(C)C)cc2)cc1	0.654
O=C(c1ccc(F)cc1)C1CCN(CCn2c(=O)[nH]c3ccccc3c2=O)CC1 [KETANSERIN]	0.765

Next compound, hepatic extraction ratio at 0.75 h to be filled in.
Input line: Quick one: hepatic extraction ratio at 0.75 h of CC(C)(C)c1ccc(C(=O)NC(=S)Nc2ccc(N)cc2)cc1 ?
Output line: 0.735

* * *

- target system: von Hippel-Lindau disease tumor suppressor/Polymerase basic protein 1 (Influenza A virus (strain A/Puerto Rico/8/1934 H1N1)) (UniProt P03431+P40337)
- Sequence (P03431 whole entry, looked up): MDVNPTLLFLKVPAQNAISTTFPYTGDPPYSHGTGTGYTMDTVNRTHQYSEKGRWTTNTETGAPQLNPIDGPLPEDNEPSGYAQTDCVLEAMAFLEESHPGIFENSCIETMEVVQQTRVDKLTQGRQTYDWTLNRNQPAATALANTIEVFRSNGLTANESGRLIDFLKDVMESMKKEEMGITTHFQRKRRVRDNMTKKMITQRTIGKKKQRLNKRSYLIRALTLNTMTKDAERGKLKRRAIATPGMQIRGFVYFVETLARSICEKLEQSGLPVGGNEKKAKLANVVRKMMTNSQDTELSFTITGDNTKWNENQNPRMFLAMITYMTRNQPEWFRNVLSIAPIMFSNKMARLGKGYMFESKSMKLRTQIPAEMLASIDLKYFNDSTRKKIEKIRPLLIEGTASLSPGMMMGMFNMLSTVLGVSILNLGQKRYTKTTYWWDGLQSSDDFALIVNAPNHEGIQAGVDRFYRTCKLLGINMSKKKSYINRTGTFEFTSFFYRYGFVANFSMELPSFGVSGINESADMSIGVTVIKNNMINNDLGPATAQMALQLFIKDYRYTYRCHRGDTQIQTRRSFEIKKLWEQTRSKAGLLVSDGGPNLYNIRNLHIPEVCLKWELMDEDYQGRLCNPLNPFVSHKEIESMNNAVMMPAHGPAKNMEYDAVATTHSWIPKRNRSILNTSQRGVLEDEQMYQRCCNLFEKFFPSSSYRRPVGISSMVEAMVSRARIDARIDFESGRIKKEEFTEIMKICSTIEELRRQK
- Sequence (P40337 whole entry, looked up): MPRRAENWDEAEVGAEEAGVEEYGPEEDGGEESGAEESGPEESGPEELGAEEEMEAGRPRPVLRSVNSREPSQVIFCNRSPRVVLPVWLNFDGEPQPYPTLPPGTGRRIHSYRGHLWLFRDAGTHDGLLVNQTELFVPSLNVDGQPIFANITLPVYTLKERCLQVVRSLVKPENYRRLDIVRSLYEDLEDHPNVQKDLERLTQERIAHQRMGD
- procedure text: PROTAC activity at Influenza A virus A/WSN/33(H1N1) flag tagged Polymerase basic protein 1/VHL (unknown origin) expressed in HEK293T cells assessed as degradation of PB1 expression at 1 ug/ml incubated for 24 hrs by Western blotting analysis
- Type: cell-based
- assay conditions: dose 1.0 µg/ml
Active and inactive are the calls of the source. No cut-off for these calls is given here.
parameter: Activity

CC(C)(C)OC(=O)N[C@@H](Cc1c[nH]c2ccccc12)C(=O)NCCCCCCC(=O)Nc1ccc(NC(=S)NC(=O)c2ccc(C(C)(C)C)cc2)cc1	inactive
CC(C)(C)OC(=O)NCCCC[C@H](NC(=O)OC(C)(C)C)C(=O)NCCCCCCCC(=O)Nc1ccc(NC(=S)NC(=O)c2ccc(C(C)(C)C)cc2)cc1	inactive
CC(C)(C)OC(=O)NCCCC[C@H](NC(=O)OC(C)(C)C)C(=O)NCCCCCCC(=O)Nc1ccc(NC(=S)NC(=O)c2ccc(C(C)(C)C)cc2)cc1	inactive
CC(C)(C)OC(=O)NCCCC[C@H](NC(=O)OC(C)(C)C)C(=O)NCCCCCCCCCCC(=O)Nc1ccc(NC(=S)NC(=O)c2ccc(C(C)(C)C)cc2)cc1	inactive
CC(C)(C)OC(=O)N[C@@H](Cc1c[nH]c2ccccc12)C(=O)NCCCCCC(=O)Nc1ccc(NC(=S)NC(=O)c2ccc(C(C)(C)C)cc2)cc1	inactive

Input line: Quick one: Activity of CC(C)(C)OC(=O)/N=C(\NCCC[C@H](NC(=O)OC(C)(C)C)C(=O)NCCCCCCCC(=O)Nc1ccc(NC(=S)NC(=O)c2ccc(C(C)(C)C)cc2)cc1)NC(=O)OC(C)(C)C ?
Output line: inactive

* * *

- target system: von Hippel-Lindau disease tumor suppressor/Polymerase acidic protein (Influenza A virus (A/Puerto Rico/8/1934(H1N1))) (UniProt P03433+P40337)
- procedure text: PROTAC activity at Influenza A virus A/WSN/33(H1N1) flag tagged Polymerase acidic protein/VHL (unknown origin) expressed in HEK293T cells assessed as degradation of PA expression at 5 uM incubated for 24 hrs by Western blotting analysis
- Type: cell-based
The source made the active and inactive calls. No cut-off for these calls is given here.
Your reply should match one of these outcome classes. 1 (yes) (active), 0 (no) (inactive)

Cc1ncsc1-c1ccc(CNC(=O)[C@@H]2C[C@@H](O)CN2C(=O)C(NCCCCCCCC(=O)Nc2ccc(NC(=S)NC(=O)c3ccc(C(C)(C)C)cc3)cc2)C(C)(C)C)cc1 (mixture of isomers)	1 (yes)
CC(C)(C)c1ccc(C(=O)NC(=S)Nc2ccc(NC(=O)CCCCCCCNC(=O)[C@@H](N)Cc3cnc[nH]3)cc2)cc1	0 (no)
CC(C)(C)c1ccc(C(=O)NC(=S)Nc2ccc(NC(=O)CCCCCCCNC(=O)[C@@H](N)CC(N)=O)cc2)cc1	0 (no)
CC(C)(C)OC(=O)NCCCC[C@H](NC(=O)OC(C)(C)C)C(=O)NCCCCCCCC(=O)Nc1ccc(NC(=S)NC(=O)c2ccc(C(C)(C)C)cc2)cc1	1 (yes)

Now consider the entry below.
Input line: In this assay, the call recorded for CCCCCCCCNC(=O)[C@H](CCCCNC(=O)OC(C)(C)C)NC(=O)OC(C)(C)C was what?
Output line: 0 (no)

* * *

- target system: von Hippel-Lindau disease tumor suppressor/Polymerase basic protein 1 (Influenza A virus (strain A/Puerto Rico/8/1934 H1N1)) (UniProt P03431+P40337)
- procedure text: PROTAC activity at Influenza A virus A/WSN/33(H1N1) flag tagged Polymerase basic protein 1/VHL (unknown origin) expressed in HEK293T cells assessed as degradation of PB1 expression at 1 ug/ml incubated for 24 hrs by Western blotting analysis
- Type: cell-based
- assay conditions: dose 1.0 µg/ml
Calls of active or inactive are those of the source. The rule behind the calls is not given here.
parameter: Activity

CC(C)(C)OC(=O)N[C@@H](Cc1c[nH]c2ccccc12)C(=O)NCCCCCCCC(=O)Nc1ccc(NC(=S)NC(=O)c2ccc(C(C)(C)C)cc2)cc1	inactive
CC(C)(C)OC(=O)N[C@@H](Cc1c[nH]c2ccccc12)C(=O)NCCCC(=O)Nc1ccc(NC(=S)NC(=O)c2ccc(C(C)(C)C)cc2)cc1	inactive
CC(C)(C)OC(=O)N[C@@H](Cc1c[nH]c2ccccc12)C(=O)NCCCCCCCCCCCC(=O)Nc1ccc(NC(=S)NC(=O)c2ccc(C(C)(C)C)cc2)cc1	inactive
